- test_summary: soluble on expression in E. coli; label from the status in PepcDB or PDB records
readout_kind: soluble on expression in E. coli

These recorded examples may help you get a feel for the data.
MAHHHHHHMCLLDVDEYKHTDTPEPRGEILLRGPFLFKGYYMQEKLTREALDEDGWFHTGDVGSITTHGRLRIIGRVKALAKNVLGEYIALEALESMYAHNALCMPNGVCVLVHPARSYICALVLTDETKAMMFAKEHGIEGSYPDILRDPAFQRKATESMQATARKADRQKFECVRHVRVVGDEWTPENEILTAAGKLKRREIDKRYADVIQLLFVEEC: not soluble
ANGLITKIWGTAGWTFNHAVTFGYPLNPTSDDKRRYKNYFISLGDVLPCRLCRESYKKFITTGKTALTNEVLRNRHTLTKWFYDVHNAVNNKLEVDYGLSYEDVVNKYESFRAK: soluble
MKSHCNKMVGGELKPIIAALLPVEPFYPTQVPFVLSRYIYDVADRQQSSLDYVAVSALCALAAVIGNPHCS: not soluble
EPDLDDWFENDREDLRHFVGIYVLAHYRNRPSDVALLADAPHHEARVLRLKNGKIVTAIQIAKEGGIPKAVIDKMAKGYKPPGNIIPDMMVKHHYAKEFARLKGYRVVRIATHPDAMDMGLGSKALELLIKEAEEKGLDWVGSGFGASPELIRFWVRNGFAVVHLSPTRNPVSGEYTAIVIKP: not soluble

Exercise: What measured soluble on expression in E. coli goes with MGKMRTPQEVPARLDALAEAARKLKFDVREPVDAGAGAIGAVHSLDYLRFLREAHARWKQLPDDWGDEVVSNVFVREPNALRGVLAQAARYLADGSCPVGPHTWQSAYWAAQCAISGAQTLLDGERHAYALCRPPGHHARRDAAGGFCYLNNAAIAAQMLTQRYKRVAILDTDMHHGQGIQEIFYERSDVLYVSIHGDPENFYPVVAGFENERGAGEGYGYNVNLPMPHGSPEPVFFDRLQQAQRAIELFQPDALVLSLGFDVFEKDPQAMVAVSANGFERLGQAIGAFKLPTLIVQEGGYYIEGLEDNAERFFAGLAKALEHHHHHH ?
Key: not soluble

Exercise: What measured soluble on expression in E. coli goes with MPYRKYREKKYETKYREAFKLFQEKIGITFTDEKLLIQAFTHSSYVNEHRKKPHEDNERLEFLGDAVLELTVSQYLFQKYPTMSEGELTKLRAAIVCEPSLVRFANELSFGSLVLLGKGEEMTGGRERPALLADVFEAFIGALYLDQGLETVWGFLKEIVYPKINEGAFSHVMDYKSQLQELIQRDGSGNIEYQILQEKGPAHNREFVSRVTLNNVALGLGSGKSKKEAEQQAAAEALKKLKEQL ?
Key: soluble

Exercise: What measured soluble on expression in E. coli goes with KNFPVLHLHREDFHDIRGTISLHLKTGFPMGFQMSVMCIGQLSMQTVVNSLGTAAVAGYTAASKADQLSVLVNNAMMTAISNYVAQNFGAGKRERIRQGVR ?
Key: not soluble

Exercise: What measured soluble on expression in E. coli goes with MFRGATAVNLDSKGRVAIPTRYRAEILEKNQGQMVCTVDIRQSCLLLYPLDEWEKIEQKLLALSNFDPTQRRLQRVMLGHATECEMDAQGRILLSGPLRQHAKLEKGLMLVGQLNKFEIWSDVEWHTQIAEDIEIGSSTDFAADALNDFSL ?
Key: not soluble
